Molecular target: EGFR (Homo sapiens, UniProt P00533)
Sequence (P00533 25-1210): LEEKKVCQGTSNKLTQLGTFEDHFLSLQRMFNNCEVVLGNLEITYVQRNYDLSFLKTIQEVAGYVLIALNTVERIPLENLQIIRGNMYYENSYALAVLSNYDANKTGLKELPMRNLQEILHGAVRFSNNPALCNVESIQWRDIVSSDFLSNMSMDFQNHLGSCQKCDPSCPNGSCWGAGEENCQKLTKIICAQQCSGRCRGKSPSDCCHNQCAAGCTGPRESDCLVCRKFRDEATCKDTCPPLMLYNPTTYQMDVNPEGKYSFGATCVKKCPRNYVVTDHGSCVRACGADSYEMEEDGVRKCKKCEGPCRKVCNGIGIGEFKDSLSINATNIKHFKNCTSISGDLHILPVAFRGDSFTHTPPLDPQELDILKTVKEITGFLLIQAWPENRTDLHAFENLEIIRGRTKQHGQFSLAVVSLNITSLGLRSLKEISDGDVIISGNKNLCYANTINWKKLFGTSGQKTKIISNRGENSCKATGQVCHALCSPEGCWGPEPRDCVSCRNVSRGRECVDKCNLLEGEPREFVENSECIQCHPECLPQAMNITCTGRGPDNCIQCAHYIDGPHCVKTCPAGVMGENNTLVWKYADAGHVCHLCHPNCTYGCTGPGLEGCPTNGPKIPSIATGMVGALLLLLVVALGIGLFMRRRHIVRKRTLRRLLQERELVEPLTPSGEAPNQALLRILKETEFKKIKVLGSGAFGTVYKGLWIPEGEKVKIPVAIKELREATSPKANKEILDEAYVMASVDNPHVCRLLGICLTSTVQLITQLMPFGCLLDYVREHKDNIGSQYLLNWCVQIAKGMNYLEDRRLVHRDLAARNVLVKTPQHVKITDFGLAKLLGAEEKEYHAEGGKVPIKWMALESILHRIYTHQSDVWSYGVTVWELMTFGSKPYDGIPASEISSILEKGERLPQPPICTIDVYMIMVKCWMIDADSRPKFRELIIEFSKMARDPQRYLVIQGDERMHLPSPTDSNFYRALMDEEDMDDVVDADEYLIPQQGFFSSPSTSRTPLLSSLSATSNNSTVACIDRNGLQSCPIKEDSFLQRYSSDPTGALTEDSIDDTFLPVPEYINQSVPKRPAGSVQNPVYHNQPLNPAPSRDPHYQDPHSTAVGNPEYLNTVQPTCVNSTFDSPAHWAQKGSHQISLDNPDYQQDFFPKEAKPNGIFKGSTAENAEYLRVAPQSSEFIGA
Experiment: Inhibition of a panel of kinases, in vitro HotSpot kinase assay: EGFR
Assay type: biochemical
pIC50: −log10 of the molar value.
Each record here notes measured pIC50.

# return recorded pIC50 for entry `CCOP(=O)(CC(=O)N1CCC[C@@H](Nc2n[nH]c3nccc(Oc4ccc(C(=O)Nc5cc(C)ccn5)cc4)c23)C1)OCC`
< 5.00

# return recorded pIC50 for entry O=C(Nc1cc(C(F)(F)F)ccn1)c1ccc(Oc2ccnc3[nH]nc(C4CCCN(C(=O)C5CC5)C4)c23)cc1 (centres unmarked)
5.00 to 6.00

# return recorded pIC50 for entry `COCC#CC(=O)N1CCC[C@@H](Nc2n[nH]c3nccc(Oc4ccc(C(=O)Nc5cc(C)ccn5)cc4)c23)C1`
5.00 to 6.00

# return recorded pIC50 for entry `CCC(=O)N1CC[C@@H](Nc2n[nH]c3nccc(Oc4ccc(C(=O)Nc5nnc(C)[nH]5)cc4)c23)C1`
< 5.00

# return recorded pIC50 for entry Cc1ccnc(NC(=O)c2ccc(Oc3ccnc4[nH]nc(N[C@@H]5CCCN(C(=O)[C@@H]6CCCO6)C5)c34)cc2)c1 [compound 117]
< 5.00

# return recorded pIC50 for entry `Cc1cc(NC(=O)c2cccc(Nc3ccnc4[nH]nc(N[C@@H]5CCCN(C(=O)N6CCOCC6)C5)c34)c2)ccc1C(C)C`
< 5.00

Continuing:
# return recorded pIC50 for entry `Cc1cccc(NC(=O)c2ccc(Oc3ccnc4[nH]nc(N[C@@H]5CCCN(C(=O)C6(C)CCOCC6)C5)c34)cc2)n1`
< 5.00

###

Reported values: IC50 for UniProt:P00533, one per item.

# return recorded IC50 for entry Cc1cnc(NC(=O)c2ccc(Oc3ccnc4[nH]nc(C5CCCN(C(=O)C6CCN(C)CC6)C5)c34)cc2)s1 (stereo not shown) [compound 217]
1000 to 10000 nM

###

Each record here notes measured IC50.
Biological target: UniProt:P06239
Test: Lck kinase activity, TR-FRET assay
Type: biochemical
Conditions: read-out: LCK (IC50)
Method: Btk kinase activity is determined using a time-resolved fluorescence resonance energy transfer (TR-FRET) methodology. Measurements are performed in a reaction volume of 50 μL using 96-well assay plates. […] The TR-FRET signal is measured on a multimode plate reader with an excitation wavelength (λEx) of 330 nm and detection wavelengths (λEm) of 615 and 665 nm. Activity is determined by the ratio of the fluorescence at 665 nm to that at 615 nm. […]

Before answering, review these 6 worked examples.
# return recorded IC50 for entry `CC1(C(=O)N2CCC[C@@H](Nc3n[nH]c4nccc(Oc5ccc(C(=O)Nc6cc(C#N)ccn6)cc5)c34)C2)COC1`
0.1 to 1 µM

# return recorded IC50 for entry `CC1(C(=O)N2CCC[C@@H](Nc3n[nH]c4nccc(Oc5ccc(C(=O)Nc6ccccn6)cc5)c34)C2)COC1`
1 to 10 µM

# return recorded IC50 for entry `CCNC(=O)N1CCC[C@@H](Nc2n[nH]c3nccc(Oc4ccc(C(=O)Nc5cc(C(F)(F)F)ccn5)cc4)c23)C1`
0.1 to 1 µM

# return recorded IC50 for entry `Cc1ccnc(NC(=O)c2ccc(Oc3ccnc4[nH]nc(N[C@@H]5CCCN(C(=O)C6CCCC6)C5)c34)cc2)c1`
1 to 10 µM

# return recorded IC50 for entry `N#C/C(=C\C1CC1)C(=O)N1CC[C@@H](Nc2n[nH]c3nccc(Oc4ccc(Oc5ccccc5)cc4)c23)C1`
0.1 to 1 µM

# return recorded IC50 for entry `Cc1cnc(NC(=O)c2ccc(Oc3ccnc4[nH]nc(N[C@@H]5CCN(C(=O)C6CC6)C5)c34)cc2)s1`
1 to 10 µM

Continuing:
# return recorded IC50 for entry `C=CC(=O)N1CCC[C@@H](Nc2n[nH]c3nccc(Oc4ccc(C(=O)Nc5nc(C)cs5)cc4)c23)C1`
1 to 10 µM

# return recorded IC50 for entry `C=CC(=O)N1CCC[C@@H](Nc2n[nH]c3nccc(Oc4ccc(C(=O)Nc5cc(C(F)(F)F)ccn5)cc4)c23)C1`
0.1 to 1 µM

###

pIC50: −log10 of the molar value.
Reported values: pIC50 for JAK3 (Homo sapiens, UniProt P52333), one per item.

Before answering, review these 3 worked examples.
# return recorded pIC50 for entry `CCOP(=O)(CCCC(=O)N1CCC[C@@H](Nc2n[nH]c3nccc(Oc4ccc(C(=O)Nc5cc(C)ccn5)cc4)c23)C1)OCC`
< 5.00

# return recorded pIC50 for entry `CCNC(=O)N[C@H]1CCCN(c2n[nH]c3nccc(Oc4ccc(C(=O)Nc5cc(C(F)(F)F)ccn5)cc4)c23)C1`
< 5.00

# return recorded pIC50 for entry `Cc1ccnc(NC(=O)c2ccc(Oc3ccnc4[nH]nc(N[C@@H]5CCCN(C(=O)C(N)=O)C5)c34)cc2)c1`
< 5.00

Read the next record carefully.
# return recorded pIC50 for entry `CCC(=O)N1CC[C@@H](Nc2n[nH]c3nccc(Oc4ccc(C(=O)Nc5ncc(C)s5)cc4)c23)C1`
5.00 to 6.00

###

Target: Lck (Homo sapiens, UniProt P06239)
Sequence (P06239 whole entry, species assumed): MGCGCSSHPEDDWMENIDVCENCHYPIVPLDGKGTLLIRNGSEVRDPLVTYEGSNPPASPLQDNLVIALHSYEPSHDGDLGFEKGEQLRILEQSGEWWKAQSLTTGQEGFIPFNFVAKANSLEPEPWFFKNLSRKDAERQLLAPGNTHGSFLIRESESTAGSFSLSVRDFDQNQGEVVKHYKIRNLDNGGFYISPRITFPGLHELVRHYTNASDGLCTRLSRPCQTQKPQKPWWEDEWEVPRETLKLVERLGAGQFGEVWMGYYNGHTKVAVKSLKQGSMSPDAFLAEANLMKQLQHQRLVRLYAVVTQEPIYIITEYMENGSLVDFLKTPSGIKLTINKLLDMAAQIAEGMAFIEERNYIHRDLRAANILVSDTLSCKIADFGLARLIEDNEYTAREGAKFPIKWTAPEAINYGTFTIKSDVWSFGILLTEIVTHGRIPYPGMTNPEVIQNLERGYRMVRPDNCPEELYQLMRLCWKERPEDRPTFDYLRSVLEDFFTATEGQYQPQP
Assay: Lck kinase activity, TR-FRET assay
Type: biochemical
Conditions: read-out: LCK (IC50)
EXPERIMENTAL READOUT: IC50

# return recorded IC50 for entry Cc1ccc(C(=O)N2CCC[C@@H](Nc3n[nH]c4nccc(Oc5ccc(C(=O)Nc6cc(C)ccn6)cc5)c34)C2)cc1 [compound 245]
1 to 10 µM

# return recorded IC50 for entry Cc1ccnc(NC(=O)c2ccc(Oc3ccnc4[nH]nc(N[C@@H]5CCCN(C(=O)c6ccccc6)C5)c34)cc2)c1 [compound 109]
1 to 10 µM

Continuing:
# return recorded IC50 for entry Cc1ccnc(NC(=O)c2ccc(Oc3ccnc4[nH]nc(N[C@@H]5CCN(C(=O)C6(C#N)CC6)C5)c34)cc2)c1 [compound 279]
1 to 10 µM

###

Each record here notes measured pIC50.
Molecular target: Btk (Homo sapiens, UniProt Q06187)
Sequence (Q06187 whole entry): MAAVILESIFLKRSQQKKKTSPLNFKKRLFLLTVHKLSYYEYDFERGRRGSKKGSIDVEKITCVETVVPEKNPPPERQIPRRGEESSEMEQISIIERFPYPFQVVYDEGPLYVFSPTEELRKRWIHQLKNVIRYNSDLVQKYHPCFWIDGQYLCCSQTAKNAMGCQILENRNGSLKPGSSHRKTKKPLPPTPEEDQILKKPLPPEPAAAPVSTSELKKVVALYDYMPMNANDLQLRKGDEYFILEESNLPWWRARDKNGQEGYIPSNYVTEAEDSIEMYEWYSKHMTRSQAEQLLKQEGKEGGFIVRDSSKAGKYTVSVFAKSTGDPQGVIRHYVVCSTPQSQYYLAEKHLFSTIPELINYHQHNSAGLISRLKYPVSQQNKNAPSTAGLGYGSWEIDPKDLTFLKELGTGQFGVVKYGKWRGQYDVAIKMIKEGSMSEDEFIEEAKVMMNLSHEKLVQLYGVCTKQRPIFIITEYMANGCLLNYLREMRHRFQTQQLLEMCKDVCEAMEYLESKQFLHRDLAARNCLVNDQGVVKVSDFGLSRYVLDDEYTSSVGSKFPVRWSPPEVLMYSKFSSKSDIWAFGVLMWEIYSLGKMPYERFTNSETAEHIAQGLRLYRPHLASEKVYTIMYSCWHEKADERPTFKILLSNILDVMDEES
Assay: Btk kinase activity, TR-FRET assay
Format: biochemical
Details: read-out: Btk (IC50)
pIC50: −log10 of the molar value.

# return recorded pIC50 for entry C=CC(=O)N1CCC[C@@H](Nc2n[nH]c3nccc(Oc4ccc(C(=O)Nc5nc6ccccc6s5)cc4)c23)C1 [compound 162]
> 7.00

# return recorded pIC50 for entry Cc1ccnc(NC(=O)c2ccc(Oc3ccnc4[nH]nc(N[C@@H]5CCCN(C(=O)C6(C)CCN(C)CC6)C5)c34)cc2)c1 [compound 283]
> 7.00

# return recorded pIC50 for entry O=C(Nc1cc(C(F)(F)F)ccn1)c1ccc(Oc2ccnc3[nH]nc(N[C@@H]4CCCN(C(=O)C5CC5)C4)c23)cc1 [compound 173]
> 7.00

# return recorded pIC50 for entry CCC(=O)N1CCC[C@@H](Nc2n[nH]c3ncnc(Oc4ccc(Oc5ccccc5)cc4)c23)C1 [compound 51]
6.00 to 7.00

# return recorded pIC50 for entry N#CCNC(=O)c1cc(Nc2n[nH]c3nccc(Oc4ccc(Oc5ccccc5)cc4)c23)ccn1 [compound 65]
6.00 to 7.00

Continuing:
# return recorded pIC50 for entry Cc1cccc2nc(-c3ccc(Oc4ccnc5[nH]nc(N[C@@H]6CCCN(C(=O)C7CCN(C)CC7)C6)c45)cc3)oc12 [compound 184]
5.00 to 6.00

# return recorded pIC50 for entry CCC(=O)N1CC[C@@H](Nc2n[nH]c3nccc(Oc4ccc(C(=O)Nc5nccc(=O)[nH]5)cc4)c23)C1 [compound 74]
< 5.00

# return recorded pIC50 for entry CCNC(=O)N1CCC[C@@H](Nc2n[nH]c3nccc(Oc4ccc(-c5nc6ccccc6[nH]5)cc4)c23)C1 [compound 224]
5.00 to 6.00

# return recorded pIC50 for entry CN(C)C/C=C/C(=O)N1CC[C@@H](Oc2n[nH]c3nccc(Nc4cccc(Oc5ccccc5)c4)c23)C1 [compound 17]
> 7.00

# return recorded pIC50 for entry Nc1ncnc2[nH]nc(-c3ccc(Oc4ccccc4)cc3)c12 [compound 121]
> 7.00

###

Reported values: IC50 for UniProt P00533, one per item.

Before answering, review these 5 worked examples.
# return recorded IC50 for entry `CCC(=O)N1CCC[C@@H](Nc2n[nH]c3nccc(Oc4ccc(-c5nc6ccccc6s5)cc4)c23)C1`
> 10 µM

# return recorded IC50 for entry `CN(C)C/C=C/C(=O)N1CC[C@@H](Nc2n[nH]c3nccc(Oc4ccc(Oc5ccccc5)cc4)c23)C1`
< 0.1 µM

# return recorded IC50 for entry `CCNC(=O)N[C@H]1CCCN(c2n[nH]c3nccc(Oc4ccc(C(=O)Nc5cc(C(F)(F)F)ccn5)cc4)c23)C1`
> 10 µM

# return recorded IC50 for entry `CCC(=O)N1CC[C@@H](Nc2n[nH]c3nccc(Oc4ccc(C(=O)Nc5nc6ccccc6[nH]5)cc4)c23)C1`
> 10 µM

# return recorded IC50 for entry `Cc1ccnc(NC(=O)c2ccc(Oc3ccnc4[nH]nc(N[C@@H]5CCCN(C(=O)C6CCCC6)C5)c34)cc2)c1`
> 10 µM

Continuing:
# return recorded IC50 for entry `CN(C/C=C/C(=O)N1CC[C@@H](Nc2n[nH]c3nccc(Oc4ccc(C(=O)Nc5cc(C(F)(F)F)ccn5)cc4)c23)C1)C1CC1`
1 to 10 µM

# return recorded IC50 for entry `CN1CCC(C(=O)N2CCC[C@@H](Nc3n[nH]c4nccc(Oc5ccc(-c6nc7ccccc7s6)cc5)c34)C2)CC1`
> 10 µM
